The origin of these recorded values is paper PMC6520840.

# Test system: A. baumannii isolate AB 53 biofilm
# Assay Text: Inhibition of biofilm formation on polystyrene plates (MBEC), crystal violet
# Type: cell-based, Acinetobacter baumannii
# Study Conditions: Isolate AB 53; polystyrene plate, LB 1/4 + 0.2% glucose, 29 °C, 24 h, crystal violet, OD 595 nm, peptides 25 to 1.56 μM
No end group written: not given here.
Measure Name: Minimal inhibitory concentration against the formation of A. baumannii biofilm (MBEC) (µM)

[
  {
    "Substance": "INWLKLGKMVIDAL-NH2 [Polybia-MPII]",
    "Study System": "A. baumannii isolate AB 53 biofilm",
    "Relation Sign": "=",
    "Quantitative Readout": 12.5
  },
  {
    "Substance": "GILGKIWEGVKSLI-NH2 [NDBP-5.8]",
    "Study System": "A. baumannii isolate AB 53 biofilm",
    "Relation Sign": ">",
    "Quantitative Readout": 25
  },
  {
    "Substance": "INWLKLGKAIIDAL-NH2 [Agelaia-MPI]",
    "Study System": "A. baumannii isolate AB 53 biofilm",
    "Relation Sign": "=",
    "Quantitative Readout": 6.25
  },
  {
    "Substance": "AVAGEKLWLLPHLLKMLLTPTP-NH2 [Polydim-I]",
    "Study System": "A. baumannii isolate AB 53 biofilm",
    "Relation Sign": ">",
    "Quantitative Readout": 25
  },
  {
    "Substance": "FWSFLVKAASKILPSLIGGGDDNKSSS-NH2 [Con10]",
    "Study System": "A. baumannii isolate AB 53 biofilm",
    "Relation Sign": "=",
    "Quantitative Readout": 12.5
  }
]
